- measuredTarget: full length human TLR3 (human)
- experiment: cell-based or functional assay
// values below are reported % inhibition of poly(I:C)-induced NF-κB luciferase reporter
attributeMeasured: % inhibition of poly(I:C)-induced NF-κB luciferase reporter

binder: mAb 9 (antibody, V domains shown) VH: QVELQQSGPGLVKPSQTLSLTCAISGDSVSSNSAAWGWIRQSPGRGLEWLGIIQIRSKWYNDYALSVKSRITINPDTSKNQFSLQLNSVTPEDTAVYYCARYSYPFYSIDYWGQGTLVTVSS VL: DIELTQPPSVSVAPGQTARISCSGDNIGSYYVHWYQQKPGQAPVLVIYEDSERPSGIPERFSGSNSGNTATLTISGTQAEDEADYYCQSYDSQFSFGVFGGGTKLTVL
reported: > 50%

binder: mAb 7 (antibody, V domains shown) VH: QVELQQSGPGLVKPSQTLSLTCAISGDSVSTRSAAWGWIRQSPGRGLEWLGRIYMRSKWYNDYAVSVKSRITINPDTSKNQFSLQLNSVTPEDTAVYYCARHTYPYLSFDVWGQGTLVTVSS VL: DIELTQPPSVSVAPGQTARISCSGDALGGYFVSWYQQKPGQAPVLVIYDDDNRPSGIPERFSGSNSGNTATLTISGTQAEDEADYYCSSYDSDSLTVFGGGTKLTVL
reported: > 50%
